Assay: RAM signaling pathway blockade in yeast – S. cerevisiae, Pdr1DBD-CYC8 efflux-inhibited sensitized strain, primary screen (AID 1298);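 also: 0% = DMSO untreated cells without growth and 100% = 10 µM 1-NA-PP1 full growth; higher means more yeast growth rescued from 5-FOA killing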
Conditions: S. cerevisiae cbk1-as DSE1-URA3 strain, 5-FOA growth OD615, 2 d; at 50 µM; stronger effect = higher value
Would you kindly list RAM network inhibition for each of these compounds?
Numbers only, in %.

Consider the worked cases shown below.
| compound | unit_label | value_reported |
| --- | --- | --- |
| O=C(Nc1nc(-c2ccccc2)cs1)c1cccs1 | % | 2.45 |
| COc1ccccc1OCC(=O)N(Cc1nc(-c2ccc(Cl)cc2)no1)C(C)C | % | 6.52 |

Could you report RAM network inhibition for every entry in the following list?
1. COc1cccc2cc(C(=O)Nc3cccnc3N3CCOCC3)c(=O)oc12
2. CC(=O)Nc1cccc(NC(=O)c2ccco2)c1

1.45
0.76

----------
Test: viability of HCT116 without oncogenic beta-catenin – human colon tumor cells, pilot screen (AID 823);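 also: 0% = wells killed by 20 µM Hyamine and 100% = untreated DMSO cell wells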
Settings: HCT116 beta-catenin knockout viability, CellTiter-Glo, 60 h; at 10 µM; stronger effect = lower value
Inconclusive results are not listed.
Would you kindly list viability for each of these molecules?
Numbers only, in %.

| molecule | viability / % |
| --- | --- |
| CCn1c(NC(=O)c2cccc(Cn3cc(Cl)cn3)c2)nc2ccccc21 | 40.3 |

Could you report viability for every entry in the following list?
1. CC1CCCC(N2CCN(C(=O)c3ccc(F)cc3)CC2)C1 (stereo not given)
2. COC(=O)c1ccc(/C=N/n2cnnc2)cc1
3. COCCNC(=O)c1cc2c(=O)n3cccc(C)c3nc2n1C
4. CN(C)C(=O)N1CCN(C(=O)c2ccco2)CC1

[101, 101, 34.3, 102]

Could you report viability for every entry in the following list?
1. Cc1nnc(SCCn2c(N3CCCC(C)C3)nc3c2c(=O)n(C)c(=O)n3C)s1 (stereo not given)
2. COc1ccccc1C(=O)NC(CCSC)C(=O)NCC(c1ccco1)N(C)C (stereo not given)
3. COc1cccc(C2=NOC(C(=O)Nc3cc(C)nn3-c3ccccc3)C2)c1OC (stereo not given)
4. Cn1c(C(=O)N2CCN(c3ccc(F)cc3)CC2)cc2c(=O)n(C)c3ccccc3c21
5. COc1cc2[nH]c(=O)n(CCCCCC(=O)NCCCN3CCCC3=O)c(=O)c2cc1OC
6. O=C(NCCCN1CCOCC1)c1cc(-c2ccc(O)cc2)on1

94.2
87.2
68.3
95.1
103
92.3

Could you report viability for every entry in the following list?
1. CCCCOc1ccc(S(=O)(=O)Nc2cc(OC)ccc2OC)cc1
2. COc1c(C(=O)Nc2c(C)n(C)n(-c3ccccc3)c2=O)ccc2ccccc12
3. Cc1cccc(C)c1OCc1nnc(SCC(=O)Nc2ccccc2F)o1
4. COC(=O)C(C#N)C(=C1C(=O)CC(C)(C)CC1=O)c1ccc(O)cc1 (stereo not given)
5. COc1ccc(C2C(C(=O)N3CCC(C)CC3)c3ccccc3C(=O)N2C)cc1 (stereo not given)
6. O=C(Nc1nncs1)c1ccccc1NS(=O)(=O)c1cccs1

54.8
98.8
98.8
97.5
83.3
102

Could you report viability for every entry in the following list?
1. Cc1nnc(NC(=O)CSc2nc3c(c(=O)n2C)SC(C)C3)s1 (stereo not given)
2. Cc1cc(C)c(C#N)c(SCC(=O)Nc2ccc(S(=O)(=O)Nc3onc(C)c3C)cc2)n1
3. O=C(CNS(=O)(=O)c1cccs1)Nc1ccc2c(c1)OCCO2
4. CC1(C)CC(=O)N(CC(=O)NCc2ccccc2)c2ccccc2S1(=O)=O
5. CC(=O)Nc1cccc(Oc2nc(C)cc(C)c2C#N)c1
6. CCOC(=O)Cn1c(=O)c(-c2ccccc2N)nc2ccccc21

1. 104
2. 109
3. 89.2
4. 107
5. 107
6. 108

Could you report viability for every entry in the following list?
1. Cc1cccc(-n2ncc3c(NCc4cccnc4)ncnc32)c1
2. Cn1c(=O)oc2cc(S(=O)(=O)N3CCCC(C(=O)NCc4cccs4)C3)ccc21 (stereo not given)
3. Cc1nc2ccc(S(=O)(=O)NC(C(=O)N3CCCC3)C(C)C)cc2s1 (stereo not given)

89.4
100
92.2

Could you report viability for every entry in the following list?
1. Cc1ccc(S(=O)(=O)N(CC(O)CN2CCCCC2)c2ccccc2)cc1 (stereo not given)
2. CC1CCCN(Cc2nc3c(c(=O)n(C)c(=O)n3C)n2CC(=O)c2ccccc2)C1 (stereo not given)
3. CCc1cc(=O)n2[nH]c(C)c(-c3ccccc3OC)c2n1
4. O=C(NCc1cccs1)C(Cc1ccccc1)NS(=O)(=O)c1cccs1 (stereo not given)
5. O=C(NC1CCCC1)C1c2ccccc2C(=O)N1CCCN1CCOCC1 (stereo not given)
6. C#CCOC(=O)C1C2C=CC(C2)C1C(=O)O (stereo not given)
7. CCCOc1ccc(NC2=CC(=O)CC(C)(C)C2)cc1
8. Cn1ccnc1SCC(=O)Nc1ccc2ccccc2c1

1: 71.6; 2: 78.2; 3: 98.6; 4: 94.3; 5: 97.2; 6: 103; 7: 95.4; 8: 96.8

Could you report viability for every entry in the following list?
1. O=C(NCc1ccc2c(c1)OCO2)C1CCC(CNc2c(N3CCCCC3)c(=O)c2=O)CC1 (stereo not given)
2. CCSCCOC(=O)C1=C(C)NC(=O)NC1c1cccc(OC)c1OC (stereo not given)
3. NC(=O)CSc1ncnc2c1oc1ccccc12
4. Cc1ccccc1Cn1cc(/C=N/n2cnnc2)c2ccccc21
5. O=C(NCc1ccccc1)C1CCN(S(=O)(=O)c2cccc3cccnc23)CC1
6. Cn1c(=O)c2cc(NCc3ccccc3)nnc2n(C)c1=O

[94.6, 96.8, 99.5, 67.8, 99.2, 67.5]

Could you report viability for every entry in the following list?
1. COc1ccccc1NC(=O)N(Cc1ccccc1)c1ccccn1
2. O=C(Cc1c(C(=O)O)[nH]c2ccccc12)NC1CCN(Cc2ccccc2)CC1
3. O=C(CSc1nnc(C2COc3ccccc3O2)o1)N1CCCCC1 (stereo not given)
4. Cc1ccccc1N1C(=O)c2sc3nc4c(c(=O)n3c2C1=O)CCC4

[87, 102, 98.7, 97]

Can you share its viability? I mean this molecule: "CCCC(=O)NCCc1nc2ccccc2n1CCC"
102
